Test: protein stability index of a GFP-peptide fusion (GPS, HEK-293T) (PSI 1-6); higher = more stable;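 further: 24-mer peptide tiles fused after GFP, lentivirally expressed, FACS-sorted into six equal bins by GFP/DsRed ratio, decoded by Illumina sequencing, PSI is the read-weighted mean bin number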
Conditions: treatment: DMSO; c terminus: a fixed tail appended
parameter: protein stability index
Would you mind answering with just the numeric figure?

[
  {
    "chain.sequence": "EAEREFILNLKKKECKDRGFEYDG [NLN]",
    "protein stability index": 4.58
  },
  {
    "chain.sequence": "WSRLEEFDVFSPKQDLVPGSPDDS [DLC1]",
    "protein stability index": 4.45
  },
  {
    "chain.sequence": "MDLKTAVFNAARDGKLRLLTKLLA [FEM1C]",
    "protein stability index": 2.17
  },
  {
    "chain.sequence": "ESFILDQDDLENPMLETASKLLLS [ANKRD17]",
    "protein stability index": 3.99
  },
  {
    "chain.sequence": "GAERKAALCELLEKETQIIASIGR [IQUB]",
    "protein stability index": 3.21
  }
]

get_value(item= GLSLCQFQNFSLHDPLYGKLFSTY [LPCAT4] , readout=protein stability index) returns 1.81

get_value(item= NFCKHNGSKNVFSTFRTPAVLFTG [ATL3] , readout=protein stability index) returns 2.21

get_value(item= PYDGNSSDPENWDRKLHSRPRKLY [BTBD10] , readout=protein stability index) returns 3.35

get_value(item= DQDLRTYLDKAPPPGLPAETIKDL [CDK4] , readout=protein stability index) returns 5.07

get_value(item= MEKKSKPKNSVWKRLKSPFRKKKD [RIT1] , readout=protein stability index) returns 3.69

get_value(item= TEMIITKAGRRMFPACRVSVTGLD [TBX6] , readout=protein stability index) returns 2.31

get_value(item= PAHLYFQAHGSEGLTFQGLLPLTE [PLEKHN1] , readout=protein stability index) returns 2.85

get_value(item= ASMAPAAALPPVPSPPAAPSVADN [SERTAD1] , readout=protein stability index) returns 5.3

get_value(item= GNPDPEITWFKDFLPVDTSNNNGR [PTPRD] , readout=protein stability index) returns 4.27

get_value(item= TEDGKLDIWSKSNYQVFQKVTDHA [MED27] , readout=protein stability index) returns 3.67

get_value(item= GHRSIYLALKLPDGSYALNGEYTL [ADAMTS4] , readout=protein stability index) returns 2.96

get_value(item= HIKFPIDYPYSPPTFRFLTKMWHP [UBE2R2] , readout=protein stability index) returns 2.3

get_value(item= LQLPQLSDLGLLRLCTWLLALSPD [FANCE] , readout=protein stability index) returns 2.89

get_value(item= RGTYEQDGRFEKRQGNPSWKKQQK [ZNF396] , readout=protein stability index) returns 4.63

----------
Experiment: protein stability index of a GFP-peptide fusion (GPS, HEK-293T) (PSI 1-6); higher = more stable
Details: treatment: DMSO; c terminus: a fixed tail appended
parameter: protein stability index

Would you please look over these solved cases?
[
  {
    "chain.sequence": "PKRRWLFWNSPSSPSSSAASSSSP [RHOBTB2]",
    "parameter": "protein stability index",
    "measured.result": 3.57
  },
  {
    "chain.sequence": "FASGFKRAFKIKDFANTIPGHGGI [CDS1]",
    "parameter": "protein stability index",
    "measured.result": 2.65
  },
  {
    "chain.sequence": "VETSAKNAININELFIEISRRIPS [RAB22A]",
    "parameter": "protein stability index",
    "measured.result": 2.34
  },
  {
    "chain.sequence": "CRFNQDPEAVDEDRSTEPDRLQVF [ATE1]",
    "parameter": "protein stability index",
    "measured.result": 4.54
  },
  {
    "chain.sequence": "GSSDSEEERATRLAELQEQLKAVH [BRD3]",
    "parameter": "protein stability index",
    "measured.result": 5.13
  }
]

get_value(item= VFVGNQLIPQPLDSEEDEKMEEDI [PCMTD1] , readout=protein stability index) returns 4.99
